Provenance of the data: paper PMC11261779

Molecular target: WDR5 (residues 24-334) D107S (mouse, UniProt P61965 24-334, D107S)
Assay: ITC; peptide (0.5 to 1.0 mM) titrated into WDR5 protein (44.5 μM) in the cell; 20 °C; Buffer D (20 mM Tris-HCl, 200 mM NaCl, pH 7.5); single binding site model
Conditions: both partners purified
pKd: −log10 of the molar value.

Binder: GAARCRVFSPQG (numbers count on: isoform MBD3C; also called MBD3C peptide; MBD3C WIN motif; source: synthetic peptide (GenScript)) [MBD3C_(40-51) peptide (methyl-CpG binding domain 3 isoform C, WIN motif)]
pKd: 4.97
